System: M14
Assay: NCI tumour cell line growth inhibition, 48 h
Activity calls are given as the source filed them. Cut-off read from the data, not from the text of the source: active = GI50 up to about 1.1 µM and inactive = higher.
Answer each item with its documented GI50.

Entry Cc1ccccc1Nc1nc(NNC(=O)Cc2ccccc2)nc(NNC(=O)c2ccncc2)n1 has what GI50? > 10 µM (inactive)

Entry CCCCCCCCCCCCCCCC(=O)OCC(O)C1OC(=O)C(O)=C1O (stereo not given) has what GI50? 18.8 µM (inactive)

Entry CCN(CC)c1ccc(C2N3CCCCC3[C@@H]3c4[nH]c5ccccc5c4CCN23)cc1 (stereo not given in full) has what GI50? 24.8 µM (inactive)

Entry C/C=C(\C)C(=O)N1c2ccccc2CC1c1c(C)[nH]c2ccccc12 (stereo not given) has what GI50? 39.3 µM (inactive)

Entry O=C(O)COc1cc(-c2ccccc2)nc2ccc(F)cc12 has what GI50? > 100 µM (inactive)

Entry COc1cc2c3c(c1OCc1ccccc1)NCCC3NCC2 (stereo not given) has what GI50? > 100 µM (inactive)

Entry O=C(O)CP(=O)(O)O has what GI50? > 100 µM (inactive)

Entry CN(C)CC/C(=N\Nc1c(F)c(F)c(F)c(F)c1F)c1ccccc1 has what GI50? > 10 µM (inactive)

Entry O=C(NC1(c2cc3ccccc3s2)CCCCC1)C1CCC1 has what GI50? > 100 µM (inactive)

Entry CCC1NCC(=O)c2c1[nH]c1ccccc21 (stereo not given) has what GI50? > 100 µM (inactive)

###

Tested on: HCT-15
Square brackets hold non-standard residues; d marks the D form. Peptide text beside a SMILES is read from it. * marks the point of attachment. NMeV = CN[C@H](C(=O)O)C(C)C; X28 = COc1ccc(CN*)c(OC)c1; Octanoyl = CCCCCCCC(=O)*; dNMeA = CN[C@H](C)C(=O)O
PROPERTY_LABEL: log10 of GI50 (log10 of the value in µM)
Hello, just confirming the data are log10 of GI50 with units of µM.

Entry CCCCCCCC(=O)N[C@H](C(=O)N[C@H](C(=O)N(C)[C@H](C(=O)N1CCC[C@H]1C(=O)N(C)[C@H](C)C(=O)NCc1ccc(OC)cc1OC)C(C)C)C(C)C)C(C)C (Octanoyl-VV[NMeV]P[dNMeA]-X28) has what log10 of GI50? 1.33

Entry Cc1ccc(CC(=O)Nc2ccc(NC(=O)CNC(=O)/C=C/c3ccc(-c4ccccc4)cc3)cc2C(=O)c2ccccc2)cc1 has what log10 of GI50? 0.57

Entry O=C1CSC(c2ccc(Cl)cc2)N1c1ccc(-n2c(-c3ccccc3)nc3ccccc3c2=O)cc1 (configuration not stated) has what log10 of GI50? 1.31

Entry CCOc1ccc2nc(NC(=O)C(=O)C(C#N)CC(C)(C)C=O)sc2c1 (configuration not stated) has what log10 of GI50? 1.64

Entry COC(=O)[C@H](COC(=O)/C=C/c1ccc(OC(C)=O)c(OC(C)=O)c1)NC(=O)/C=C/c1ccc(OC(C)=O)c(OC(C)=O)c1 has what log10 of GI50? 1.27

###

System: SW-620
Assay: NCI tumour cell line growth inhibition, 48 h
Activity calls are given as the source filed them. Cut-off read from the data, not from the text of the source: active = GI50 up to about 1.1 µM and inactive = higher.
Your answer must be one of the following: label 1 for active, label 0 for inactive

Hi, sorry to bother you, what did the test record for COC(=O)C(Cc1cn(C(C)=O)c2ccccc12)P(=O)(OC)OC (centres undefined) ? label 0

Hi, sorry to bother you, what did the test record for O=c1cnn(C2OC(C(O)CO)C(O)C2O)c(=O)[nH]1 (centres undefined) ? label 0

Hi, sorry to bother you, what did the test record for Cc1ccc([N+](=O)[O-])c2c(NCCNC(=O)Cn3ccnc3[N+](=O)[O-])ccnc12 ? label 0

Hi, sorry to bother you, what did the test record for CCOC(=O)C1=CNC2=N[C@H]3CCCC[C@@H]3N2C1=O ? label 0

Hi, sorry to bother you, what did the test record for CN(C)c1nc(N(C)C)nc(N(C)CN(C)c2nc(N(C)C)nc(N(C)C)n2)n1 ? label 0

Hi, sorry to bother you, what did the test record for C[N+]1(C)C/C(=C\c2ccc(O)cc2)C(=O)/C(=C/c2ccc(O)cc2)C1 ? label 0

Hi, sorry to bother you, what did the test record for CC(C)CCCC(C)[C@H]1CC[C@H]2N/C(=N/c3ccccc3)CCC[C@]12C (some centres undefined) ? label 0

Hi, sorry to bother you, what did the test record for Cc1ccc(/C=C(\C#N)c2ccccc2)cc1 ? label 0

Hi, sorry to bother you, what did the test record for C#CCSc1nc(N)c2ncn(C3OC(COP(=O)(O)O)C(O)C3O)c2n1 (centres undefined) ? label 0

Hi, sorry to bother you, what did the test record for O=C1C(CO)=C[C@@H](O)[C@H]2O[C@@H]12 ? label 0

Hi, sorry to bother you, what did the test record for CN(C)c1ccc(Cc2cc3c(O)ccc(O)c3cc(Cc3ccc(N(C)C)cc3)c2=O)cc1 ? label 0

Hi, sorry to bother you, what did the test record for CN(C)CCn1c(=O)c2ccc3c4c(nn3CCN(C)C)c3ccccc3n(c1=O)c24 ? label 1

Hi, sorry to bother you, what did the test record for O=C(c1cc2ccccc2cc1O)N1CCCCC1 ? label 0

Hi, sorry to bother you, what did the test record for CCCCNC1CCC2(SCCS2)c2[nH]c3ccccc3c21 (centres undefined) ? label 0

Source of measurements: ChEMBL document CHEMBL1201862
